- Test system: M14 melanoma
- Protocol Summary: NCI-60 one-dose screen, 48 h (100 = growth as untreated, 0 = no growth, -100 = all killed)
- Recorded Conditions: 10 µM
The panel holds about 83,000 compounds, 20% with a hit somewhere; the sample as a whole holds those more often.
Reported growth is given for each of the following compounds.
Write the value in % as a bare number.

Previously resolved entries follow.
{"Compound": "COC(=O)c1c(-c2ccccc2)csc1NC(=O)c1c(-c2ccccc2)noc1C", "Measurement Label": "growth", "Test Value": 52.3}
{"Compound": "Clc1ccc(Nc2ccnc(NCCCNc3ccnc4cc(Cl)ccc34)n2)cc1", "Measurement Label": "growth", "Test Value": -80}
{"Compound": "O=S(=O)(Nc1ccccn1)c1ccc(N=Nc2ccc(O)c3ncccc23)cc1", "Measurement Label": "growth", "Test Value": 11.8}

Documented growth of Clc1ccc(-c2cn(-c3ccccc3)c(-c3ccccc3)n2)c(Cl)c1 : 16.7

compound CCCCCCCNc1nc(C=O)ncc1-c1ccc(C(F)(F)F)cc1 , growth observed: 102

Record CCCC#CCN(CC)CC . Reported growth: 108

Measured growth, CCCCCCCCCCCCC1C/C=C\CCCC(=O)O1 (configuration not stated) : 100

Reported growth ( COc1ccc(-c2cc(/C=C3\C(=O)Nc4ccc(OC)cc43)[nH]n2)cc1 ) = 35.7

* * *

- System: U251 CNS
- Protocol Summary: NCI-60 one-dose screen, 48 h (100 = growth as untreated, 0 = no growth, -100 = all killed)
- Recorded Conditions: 10 µM
Compounds without any hit were thinned out: in the full panel of roughly 83,000, 20% have a hit.
Measurement Label: growth (%)
Your answer is read as %, so omit the unit and give the number.

Take a look at these entries with their results.
{"Compound": "CCCCCCN1C(=O)C2=C(c3ccc(Cl)cc3)Nc3c(c(C)nn3-c3ccccc3)C2c2ccccc21 (stereo unspecified)", "Measurement Label": "growth", "Test Value": 87.8}
{"Compound": "COc1ccc(-c2nc3sc(-c4ccccc4)c(-c4ccccc4)n3c2/C=C/C(=O)c2ccccn2)cc1", "Measurement Label": "growth", "Test Value": 85.4}
{"Compound": "O=C(CCCCC(=O)Nc1ccc2c(c1)/C(=C/c1ccc[nH]1)C(=O)N2)NO", "Measurement Label": "growth", "Test Value": 69.3}
{"Compound": "Cc1cccc(C)c1NC(=O)c1sc2nc3c(cc2c1N)C(=O)CCC3", "Measurement Label": "growth", "Test Value": 85.6}

Record Cc1cc(Nc2ccc(Cl)cc2)nc(NCCCNc2ccnc3cc(Cl)ccc23)n1 , field growth: -91.3

Entry O=[P@@]1(c2ccccc2)O[C@H](COCc2ccccc2)[C@@H](OCc2ccccc2)[C@H](OCc2ccccc2)[C@H]1O ; growth = 39.4

// sample c1ccc([I+]c2ccccc2)cc1 , its growth was 70.9

* * *

Recorded growth values for a group of molecules are listed next.
- System: SNB-75 CNS
- Protocol Summary: NCI-60 one-dose screen, 48 h (100 = growth as untreated, 0 = no growth, -100 = all killed)
- Recorded Conditions: 10 µM
- Method: Growth inhibition of the SNB-75 human tumor cell line is measured as a screen for anti-cancer activity. Cells are grown in 96 well plates and exposed to the test compound for 48 hours. Compounds are tested at a single concentration, which is 10^-5 M for most compounds. The reported endpoint is percent growth (GI% or GIPRCNT), where numbers from 0 - 100% represent growth inhibition, and numbers from -100% - 0 represent cell death. For example, a value of 40 represents 60% growth inhibition. […]
The panel holds about 83,000 compounds, 20% with a hit somewhere; the sample as a whole holds those more often.
API: value field is a number in %; no unit string.

Sample answers from the record:
{"Molecule": "N#Cc1cc(-c2cc3ccccc3o2)oc1N", "Measurement Label": "growth", "Test Value": 24.4}
{"Molecule": "CNc1ncc(-c2ccc(C(F)(F)F)cc2)c(NC2CCCCCC2)n1", "Measurement Label": "growth", "Test Value": 90.9}
{"Molecule": "Cn1c(N)c(N=Nc2ccc(S(=O)(=O)Nc3nccs3)cc2)c(=O)n(C)c1=O", "Measurement Label": "growth", "Test Value": 94.1}
{"Molecule": "C#Cc1ccc(-n2c(/C=C/c3cc(OC)cc(OC)c3)nc3ncccc3c2=O)cc1", "Measurement Label": "growth", "Test Value": 55}
{"Molecule": "COc1cc(/C=C/C(=O)c2ccc(Cl)cc2)ccc1OS(=O)(=O)c1ccc(C)cc1", "Measurement Label": "growth", "Test Value": 105}
{"Molecule": "O=C(NN1C(=O)CSC1c1ccc(Cl)cc1)c1cccnc1 (configuration not stated)", "Measurement Label": "growth", "Test Value": 110}
{"Molecule": "N=C1c2nc3n(c2C(=O)c2nc4n(c21)CCCC4)CCCC3", "Measurement Label": "growth", "Test Value": -97}
{"Molecule": "COc1cc([C@@H]2c3cc4c(cc3C(Br)[C@H]3COC(=O)[C@H]23)OCO4)cc(OC)c1OC (some centres not stated)", "Measurement Label": "growth", "Test Value": 9.76}
{"Molecule": "Cc1occc1-c1nnc(SCC(=O)c2ccc(NC(=O)CC(C)C)cc2)o1", "Measurement Label": "growth", "Test Value": 111}
{"Molecule": "O=C1c2ccc3c4c(ccc(c24)C(=O)N1CCNCc1ccccc1)C(=O)N(CCNCc1ccccc1)C3=O", "Measurement Label": "growth", "Test Value": 105}

Okay, next one:
Short answer for Cc1ccc(NC(=O)Nc2cccnc2)cc1NC(=O)Nc1cccnc1 : growth was 95.9

* * *

- Test system: OVCAR-3 ovarian
- Protocol Summary: NCI-60 one-dose screen, 48 h (100 = growth as untreated, 0 = no growth, -100 = all killed)
- Recorded Conditions: 10 µM
This is part of a sample that, as a whole, favours compounds with a hit. Of some 83,000 tested, about 20% had one in any assay. Calls of active or inactive are those of the source. Rule for the calls: active = growth percent below 10; inactive = the rest.
Measurement Label: growth

{"Compound": "O=S(=O)(NCCCNc1nccc(-c2c(-c3ccc(F)cc3)nc3sccn23)n1)c1ccc(F)cc1", "Assayed System": "OVCAR-3 ovarian", "growth": "55.4% (inactive)"}
{"Compound": "CCN(CCCCCCN1CC(=O)N(CCCCCCN(CC)Cc2ccccc2OC)CC1=O)Cc1ccccc1OC", "Assayed System": "OVCAR-3 ovarian", "growth": "59.5% (inactive)"}
{"Compound": "Clc1ccc2c(NCCCNc3nccc(Nc4ccc(Br)cc4)n3)ccnc2c1", "Assayed System": "OVCAR-3 ovarian", "growth": "-22.8% (active)"}
{"Compound": "COc1cc(NC(=O)CCSc2nc3ccc(Cl)cc3c(=O)n2Cc2ccccc2)cc(OC)c1OC", "Assayed System": "OVCAR-3 ovarian", "growth": "93.4% (inactive)"}
{"Compound": "CC(C)=CCc1ccc(O)c(=O)cc1C(C)C", "Assayed System": "OVCAR-3 ovarian", "growth": "43.4% (inactive)"}
{"Compound": "CC1(C)OC2=C(CC1Br)C(=O)C(=O)c1ccccc12 (stereo unspecified)", "Assayed System": "OVCAR-3 ovarian", "growth": "-96.5% (active)"}

Reported growth ( COc1ccc2c(c1)C(=O)c1c-2c(OCCN(C)C)nc2ccccc12 ) = 30.4% (inactive)

Lookup result for COc1ccc(Nc2ccnc(NCCNc3ccnc4cc(Cl)ccc34)n2)cc1 ; measured growth: 60.3% (inactive)

GET /value?item= Clc1ccc(Nc2ccnc(NCCNc3ccnc4cc(Cl)ccc34)n2)cc1 &field=growth returns 57.8% (inactive)

Lab note: O=C(CC(c1ccccc1)N1CCOCC1)c1ccccc1 (stereo unspecified) gave growth of 94.7% (inactive)

get_value(item= C#Cc1ccc(-n2c(/C=C/c3ccc4ccccc4n3)nc3ncccc3c2=O)cc1 , readout=growth) returns -66.8% (active)

* * *

- System: SK-OV-3 ovarian
- Protocol Summary: NCI-60 one-dose screen, 48 h
- Recorded Conditions: 10 µM
This is part of a sample that, as a whole, favours compounds with a hit. Of some 83,000 tested, about 20% had one in any assay. Activity calls are given as the source filed them. The calls were made as follows: active = growth percent below 10; inactive = the rest.
Answer with one of the outcomes active, inactive

{"Compound": "Nc1ccccc1NC(=O)CCCCC(=O)Nc1ccc2c(c1)/C(=C/c1ccc[nH]1)C(=O)N2", "Assayed System": "SK-OV-3 ovarian", "Answer Label": "inactive"}

Hi, sorry to bother you, what did the test record for COc1cc(C)ccc1C(=O)c1ccc(C)cc1OC ?
inactive

Please let me know the test result on file for CC1(C)OC2=C(CC1Br)C(=O)C(=O)c1ccccc12 (centres undefined) .
inactive

What outcome does the record of this test show for COC(=O)[C@@H]1[C@H](O)[C@H](C)[C@H](O)[C@@](C)(O)/C=C\C=C(C)C(=O)Nc2c(C)c(OC(C)=O)c3c(c2O)C(=O)C(C)=C2OCOC(=C23)C(C)=C[C@@](C)(O)[C@H](O)[C@@H](C)[C@H]1OC(C)=O ?
inactive

Outcome logged for FC(F)(F)c1ccc2nc(-c3nc(-c4ccccc4)n4ccccc34)[nH]c2c1 in this assay:
inactive

Record request — test call for CC(C)(C)c1ccc(N2CSC(=S)N(c3ccc(C(C)(C)C)cc3)C2)cc1
inactive

Answer briefly: the call reported for Nc1cc2c(cc1Cl)-c1ccc([N+](=O)[O-])cc1/C2=N\O in this assay.
inactive

For this compound, state the assay outcome: O=c1[nH]c(-c2ccc(Cl)cc2)nc2sc3c(c12)CCCC3
inactive
